Field: inhibition. Provide a value for each of the molecules that follow.
- Measurement protocol: anti-Giardia activity of synthetic compounds – Compounds Australia Scaffold Library subset, 24/48 h, primary screen (AID 1794835);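 further: 0% = parasite counts in DMSO vehicle wells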
- Test parameters: Giardia lamblia BRIS/91/HEPU/1279 trophozoite counts, imaging, measured here: growth inhibition at 24 h, at 10 µM, stronger effect = higher value
Hit rate of the full screen: of about 2,500 compounds, about 45 (2%) were called active. The sample holds actives, similar compounds and a random draw of the others, so the mix is not that of the screen.
Answer format: value, then unit.

Exercise: Report inhibition for COc1ccc(C(=O)c2c(N)c(-c3nc(-c4cc(OC)ccc4OC)cs3)c3ccccn23)cc1
Key: 3.8%

Exercise: Please list inhibition recorded for the molecule O=S(=O)(c1cccc(F)c1)N1CC(OCc2cccc(F)c2)C1
Key: 1.5%

Exercise: Please list inhibition recorded for the molecule Cc1ccc(-c2cc(C(=O)NCc3cn(C)nc3C)c3ccccc3n2)cc1C
Key: 3%

Exercise: Please report inhibition for the following molecule: Nc1c(-c2nc(-c3ccccc3)cs2)c2ccccn2c1C(=O)c1ccc2c(c1)OCO2
Key: 63.2%

Exercise: Determine from records and report inhibition for COc1ccc(-c2csc(C3=C(O)CN(CC(C)(C)CN(C)C)C3=N)n2)cc1OC
Key: 23.9%

Exercise: Specify inhibition for Cc1nccc2[nH]c(=O)c(C(=O)NCCCN(C)C3CCCCC3)cc12 and stop.
Key: 0.2%

Exercise: Specify inhibition for O=C(Cc1noc(-c2ccoc2)n1)NC1CCCCC1 and stop.
Key: 4.9%

Exercise: Find the measured inhibition of C=CCn1c(SCC(=O)N2CCCCC2)nc2scc(-c3ccco3)c2c1=O and report it.
Key: 6.8%

Exercise: Look up inhibition of COc1cccc(CNC(=O)Cn2ccc3sccc3c2=O)c1 and report it.
Key: 0.5%

Exercise: Specify inhibition for COc1ccccc1N1CCN(C(=O)c2cc(C3CC3)[nH]n2)CC1 and stop.
Key: 9.6%

Exercise: Supply measured inhibition of Cc1cc(-c2cc(C(=O)Nc3ccc(N4CCN(C)CC4)nc3)c3cnn(C(C)C)c3n2)c(C)o1 in your reply.
Key: 95.9%

Exercise: Supply inhibition value. Item: COc1ccc2oc(-c3noc(C(=O)NCCN4CCCCCC4)n3)c(C)c2c1
Key: 11.6%

Exercise: Consider the molecule CCCCn1nnnc1CN1CCCC1Cn1cncn1 (configuration not stated) . State its measured inhibition.
Key: 2%

Exercise: Please report the measured inhibition for CC(NC(=O)Cc1csc(Cc2ccccn2)n1)c1ccc(F)cc1 (configuration not stated)
Key: 5.1%

Exercise: Respond only with inhibition recorded for COc1ccc(-c2csc(-n3nccc3C(F)(F)F)n2)cc1OC
Key: 8%

Exercise: Report inhibition for NC(=O)C1=C(Nc2ccccc2)c2ccccc2S1(=O)=O
Key: 12.8%

Exercise: Write down inhibition measured for item COc1ccc2oc(-c3noc(C(NC(=O)c4ccco4)C(C)C)n3)c(C)c2c1 (configuration not stated)
Key: 18.3%

Exercise: Give the reported inhibition for this molecule. CCc1cccc(NC(=O)C2CCCN(S(=O)(=O)c3c(C)noc3C)C2)c1 (configuration not stated)
Key: 13.3%

Exercise: Answer with reported inhibition of Cc1ccc(NC(=O)CN2C(=O)C3CCCCN3c3ccc(C(=O)N4CCCC4)cc32)cc1 (configuration not stated)
Key: 35.5%

Exercise: Tell me measured inhibition for CN1CCN(CCNC(=O)CN2C(=O)C3CCCCN3c3ccc(C(=O)N4CCCC4)cc32)CC1 (configuration not stated) please.
Key: 11.7%

Exercise: Tell me its inhibition given O=C(Nc1nc(-c2ccco2)c(-c2ccco2)s1)c1ccccc1 as the entry.
Key: 27.2%

Exercise: Give a short answer stating reported inhibition for Cc1nc2sccn2c1-c1nc(-c2ccccc2)c(C(=O)c2ccc3c(c2)NC(=O)CO3)s1 .
Key: 1.6%
